target: α2β2γ1 GABAA receptor subtype (Homo sapiens (Human), UniProt P47869+Q8N1C3); assay: Two-electrode voltage clamp electrophysiology in Xenopus oocytes expressing GABAA receptors (modulation of GABA EC20 current); format: cell-based; conditions: Xenopus oocytes expressing α2β2γ1; compound at approx. 30-fold its Ki α2β2γ1; GABA EC20 current
Recorded Fold increase h-GABA-A α2β2γ1 oocyte @ 30-fold Ki for the following compounds
Answer with a bare number; do not write a unit.

Below are worked cases with known answers.
C[C@@H]1N=C(c2c(F)cccc2F)c2c(ccc(Cl)c2Cl)-n2nc(C(=O)N3CC[C@H](F)C3)nc21 [Example 80]; 1.89
C[C@@H]1N=C(c2ncccc2F)c2c(ccc(C(F)(F)F)c2Cl)-n2nc(N3CCOC3=O)nc21 [Example 147]; 2.13
C[C@@H]1N=C(c2c(F)cccc2F)c2c(ccc(C(F)(F)F)c2Cl)-n2nc(NC(=O)NC3COC3)nc21 [Example 125]; 1.73
[2H]C([2H])([2H])NC(=O)c1nc2n(n1)-c1ccc(Cl)c(Cl)c1C(c1c(F)cccc1F)=N[C@H]2C [Example 20]; 1.78
C[C@H](O)CNC(=O)c1nc2n(n1)-c1ccc(Cl)c(Cl)c1C(c1c(F)cccc1F)=N[C@H]2C [Example 63]; 1.79
Cc1nc2n(n1)-c1ccc(C(F)(F)F)c(Cl)c1C(c1c(F)cccc1F)=N[C@H]2C [Example 29]; 1.80

Identify Fold increase h-GABA-A α2β2γ1 oocyte @ 30-fold Ki associated with the compound COC1CN(C(=O)c2nc3n(n2)-c2ccc(Cl)c(Cl)c2C(c2ncccc2F)=N[C@H]3C)C1 [Example 38]
2.16

Complete the entry with Fold increase h-GABA-A α2β2γ1 oocyte @ 30-fold Ki for C[C@@H]1N=C(c2c(F)cccc2F)c2c(ccc(Cl)c2Cl)-n2nc(C3COC3)nc21 [Example 81]
1.53

Given the compound C[C@@H]1N=C(c2ncccc2F)c2c(ccc(Cl)c2Cl)-n2nc(C(=O)N3CC4(CCCO4)C3)nc21 [Example 97] , write its reported Fold increase h-GABA-A α2β2γ1 oocyte @ 30-fold Ki.
1.95

Read off the recorded Fold increase h-GABA-A α2β2γ1 oocyte @ 30-fold Ki for C[C@@H]1N=C(c2ncccc2F)c2c(ccc(C(F)(F)F)c2Cl)-n2nc(C(=O)N3CCS(=O)(=O)CC3)nc21 [Example 124]
2.45

Give the reported value of Fold increase h-GABA-A α2β2γ1 oocyte @ 30-fold Ki for this record: C[C@@H]1N=C(c2ncccc2F)c2c(ccc(C(F)(F)F)c2Cl)-n2cc(C(=O)NCC(C)(C)O)nc21 [Example 159]
3.17

Identify the reported Fold increase h-GABA-A α2β2γ1 oocyte @ 30-fold Ki for the following entry. Cc1cnc2n1-c1ccc(Br)c(Cl)c1C(c1c(F)cccc1F)=N[C@H]2C [Example 116]
1.35

Tell me its Fold increase h-GABA-A α2β2γ1 oocyte @ 30-fold Ki given O=C(NC1COC1)c1nc2n(n1)-c1ccc(Cl)c(Cl)c1C(c1c(F)cccc1F)=NC2 [Example 10] as the entry.
1.70

Respond only with Fold increase h-GABA-A α2β2γ1 oocyte @ 30-fold Ki recorded for [2H]C([2H])([2H])NC(=O)c1nc2n(n1)-c1ccc(Cl)c(Cl)c1C(c1c(F)cccc1F)=NC2 [Example 7]
1.68

Give the value of Fold increase h-GABA-A α2β2γ1 oocyte @ 30-fold Ki reported for the following: C[C@@H]1N=C(c2ncccc2F)c2c(ccc(C(F)(F)F)c2Cl)-n2cc(C(=O)N3CC(C)(O)C3)nc21 [Example 160]
2.77

Source of measurements: patent US12365687B2
